Measured kmax of the dose-response activation of the GEF activity of C3G (1 µM) on Rap1b:mant-dGDP by item
# testTarget: T1, C3G full-length wild type (human, isoform a, residues 4-1077) (human, UniProt Q13905-1 4-1077)
# T1 sequence (looked up): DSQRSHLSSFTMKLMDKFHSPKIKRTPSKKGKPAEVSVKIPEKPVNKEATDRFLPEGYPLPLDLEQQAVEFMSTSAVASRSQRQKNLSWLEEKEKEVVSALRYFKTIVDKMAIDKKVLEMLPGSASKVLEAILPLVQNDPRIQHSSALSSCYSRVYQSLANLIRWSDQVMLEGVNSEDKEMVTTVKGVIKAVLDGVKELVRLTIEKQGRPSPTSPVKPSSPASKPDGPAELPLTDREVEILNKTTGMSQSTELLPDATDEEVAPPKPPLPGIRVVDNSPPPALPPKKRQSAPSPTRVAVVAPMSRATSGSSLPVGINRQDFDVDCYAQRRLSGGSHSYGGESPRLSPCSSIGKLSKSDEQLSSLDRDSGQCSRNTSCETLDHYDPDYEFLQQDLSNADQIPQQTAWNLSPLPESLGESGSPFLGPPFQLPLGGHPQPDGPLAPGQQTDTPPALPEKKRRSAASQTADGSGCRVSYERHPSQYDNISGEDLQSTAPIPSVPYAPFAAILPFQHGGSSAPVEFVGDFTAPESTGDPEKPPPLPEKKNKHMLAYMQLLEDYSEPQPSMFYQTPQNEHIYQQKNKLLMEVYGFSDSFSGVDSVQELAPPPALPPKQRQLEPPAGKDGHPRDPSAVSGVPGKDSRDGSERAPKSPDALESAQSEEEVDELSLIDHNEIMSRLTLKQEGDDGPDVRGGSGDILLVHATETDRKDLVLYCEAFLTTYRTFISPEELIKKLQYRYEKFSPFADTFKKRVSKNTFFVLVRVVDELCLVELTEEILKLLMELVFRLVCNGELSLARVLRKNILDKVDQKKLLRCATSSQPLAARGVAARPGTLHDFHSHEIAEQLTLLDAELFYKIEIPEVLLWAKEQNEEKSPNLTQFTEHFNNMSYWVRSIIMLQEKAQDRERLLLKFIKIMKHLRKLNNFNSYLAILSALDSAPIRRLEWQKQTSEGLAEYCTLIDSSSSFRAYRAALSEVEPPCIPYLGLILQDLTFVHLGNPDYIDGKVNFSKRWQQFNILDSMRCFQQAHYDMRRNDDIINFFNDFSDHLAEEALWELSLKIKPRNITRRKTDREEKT
# testName: cell-based or functional assay
Please answer in the form of a number followed by its unit of measurement.

Example entries and their recorded answers appear below.
binder: CrkL-SH2-SH3N (residues 1-182) (domain or fragment, human, UniProt P46109 1-182, looked up) MSSARFDSSDRSAWYMGPVSRQEAQTRLQGQRHGMFLVRDSSTCPGDYVLSVSENSRVSHYIINSLPNRRFKIGDQEFDHLPALLEFYKIHYLDTTTLIEPAPRYPSPPMGSVSAPNLPTAEDNLEYVRTLYDFPGNDAEDLPFKKGEILVIIEKPEEQWWSARNKDGRVGMIPVPYVEKLV
result: 0.0084 s⁻¹ µM⁻¹
--
binder: CrkL-SH3N (residues 125-182) (domain or fragment, human, UniProt P46109 125-182, looked up, human CrkL, SH3N domain, residues 125-182, in pETEV15b; also called SH3N domain of CrkL; isolated SH3N domain; source: E. coli BL21 (DE3), purified (His-tagged, purified in a similar manner as C3G)) LEYVRTLYDFPGNDAEDLPFKKGEILVIIEKPEEQWWSARNKDGRVGMIPVPYVEKLV
result: 0.0063 s⁻¹ µM⁻¹
--
binder: CrkII (human) (natural protein, UniProt P46108-1 1-304, looked up) MAGNFDSEERSSWYWGRLSRQEAVALLQGQRHGVFLVRDSSTSPGDYVLSVSENSRVSHYIINSSGPRPPVPPSPAQPPPGVSPSRLRIGDQEFDSLPALLEFYKIHYLDTTTLIEPVSRSRQGSGVILRQEEAEYVRALFDFNGNDEEDLPFKKGDILRIRDKPEEQWWNAEDSEGKRGMIPVPYVEKYRPASASVSALIGGNQEGSHPQPLGGPEPGPYAQPSVNTPLPNLQNGPIYARVIQKRVPNAYDKTALALEVGELVKVTKINVSGQWEGECNGKRGHFPFTHVRLLDQQNPDEDFS
result: 0.0072 s⁻¹ µM⁻¹

Lab note: next binder to report on.
# kmax of the dose-response activation of the GEF activity of C3G (1 µM) on Rap1b:mant-dGDP (binder: CrkL-SH3N-SH3C (residues 125-303) (domain or fragment, human, UniProt P46109 125-303, looked up) LEYVRTLYDFPGNDAEDLPFKKGEILVIIEKPEEQWWSARNKDGRVGMIPVPYVEKLVRSSPHGKHGNRNSNSYGIPEPAHAYAQPQTTTPLPAVSGSPGAAITPLPSTQNGPVFAKAIQKRVPCAYDKTALALEVGDIVKVTRMNINGQWEGEVNGRKGLFPFTHVKIFDPQNPDENE ) is 0.0129 s⁻¹ µM⁻¹
